# pIC50 per entry
subjectOfTest: KRAS G12S (Homo sapiens (Human), UniProt P01116+P62937, G12S)
Sequence (P01116-2 other isoform, or with tags, fused parts or gaps G12S): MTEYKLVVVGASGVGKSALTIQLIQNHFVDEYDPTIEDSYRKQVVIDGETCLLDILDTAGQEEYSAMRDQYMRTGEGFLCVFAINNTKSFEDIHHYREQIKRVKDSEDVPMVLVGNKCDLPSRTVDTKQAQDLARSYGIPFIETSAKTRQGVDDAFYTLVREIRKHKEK
Sequence (P62937 whole entry): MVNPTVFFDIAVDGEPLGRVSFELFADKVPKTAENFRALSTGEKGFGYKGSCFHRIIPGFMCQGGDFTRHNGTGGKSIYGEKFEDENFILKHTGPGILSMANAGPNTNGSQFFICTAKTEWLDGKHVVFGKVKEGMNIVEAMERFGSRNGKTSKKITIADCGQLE
procedureText: Ras-Raf (BRAF RBD) disruption / FRET / MOA assay, KRAS G12S
Type: biochemical
conditionLabel: Ras-Raf disruption/FRET/MOA assay; class symbols; read-out: KRAS G12S FRET data IC50
pIC50: −log10 of the molar value.

{"compound": "CC#CC(=O)N1CC[C@]2(CCN([C@H](C(=O)N[C@H]3Cc4nc(cs4)-c4ccc5c(c4)c(c(-c4cccnc4[C@H](C)OC)n5CC)CC(C)(C)COC(=O)[C@@H]4CCCN(N4)C3=O)C(C)C)C2=O)C1 (atropisomer, axis not shown) [Example A511]", "pIC50": "5.00 to 6.00"}

## Task Recorded pIC50 for C=CC(=O)N1CC[C@H](C(=O)N(C)[C@H](C(=O)N[C@H]2Cc3cc(O)cc(c3)-c3ccc4c(c3)c(c(-c3cnn5c3[C@@H](OC)CCC5)n4CC)CC(C)(C)COC(=O)[C@@H]3CCCN(N3)C2=O)C(C)C)C1 [Example A300] , please?
## Result 7.00 to 8.00

## Task What value of pIC50 has been recorded for this entry: CCn1c(-c2ccccc2CN(C)C)c2c3cc(ccc31)-c1cc(O)cc(c1)C[C@H](NC(=O)[C@H](C(C)C)N(C)C(=O)c1ccc(NC(=O)/C=C/CN(C)C)cn1)C(=O)N1CCC[C@H](N1)C(=O)OCC(C)(C)C2 [Example A046]
## Result < 5.00

## Task I am curious: what pIC50 value has been reported for C=CC(=O)NC1CN(C(=O)N(C)[C@H](C(=O)N[C@H]2Cc3nc(cs3)-c3ccc4c(c3)c(c(-c3cccnc3[C@H](C)OC)n4CC)CC(C)(C)COC(=O)[C@@H]3CCCN(N3)C2=O)C(C)C)C1 (atropisomer, axis not shown) [Example A490] ?
## Result 6.00 to 7.00

## Task Using the record for CCn1c(-c2cccnc2[C@H](C)OC)c2c3cc(ccc31)-c1cccc(c1)C[C@H](NC(=O)[C@H](C(C)C)N(C)C(=O)N1CCC13CN(C(=O)C#CC(C)(C)N(C)C)C3)C(=O)N1CCC[C@H](N1)C(=O)OCC(C)(C)C2 [Example A672] , report its pIC50.
## Result 6.00 to 7.00

## Task Give the measured pIC50 of C=CC(=O)N1CC[C@H]2[C@@H](C1)CN2C(=O)N(C)[C@H](C(=O)N[C@H]1Cc2nc(cs2)-c2ccc3c(c2)c(c(-c2cccnc2[C@H](C)OC)n3CC)CC(C)(C)COC(=O)[C@@H]2CCCN(N2)C1=O)C(C)C (atropisomer, axis not shown) [Example A687] .
## Result 6.00 to 7.00

## Task # get_value(readout='pIC50', item= C=CC(=O)N1CC[C@H](C(=O)N(C)[C@H](C(=O)N[C@H]2C[C@H]3CN(CCO3)c3ccc4c(c3)c(c(-c3cccnc3[C@H](C)OC)n4CC)CC(C)(C)COC(=O)[C@@H]3CCCN(N3)C2=O)C(C)C)C1 (atropisomer, axis not shown) [Example A378] )
## Result 5.00 to 6.00

## Task Reported pIC50, compound CCn1c(-c2cnccc2COC)c2c3cc(ccc31)-c1ccnc(c1)C[C@H](NC(=O)[C@H](C(C)C)N(C)C(=O)[C@H]1CCN(C(=O)C#CCN(C)C)C1)C(=O)N1CCC[C@H](N1)C(=O)OCC(C)(C)C2 [Example A130] : ____
## Result < 5.00
